Values were extracted from PubChem BioAssay (NCATS).

- method notes: Quantitative High-Throughput drug screen in 47 multiple myeloma cell lines against the NCATS MIPE library collection: XG1_PLB cell viability assay (AID 1919866); also: nearly all actives have a fitted effect of over 35% in size
- conditions: CellTiter-Glo ATP, 48 h; series mostly up to 45.8 µM
Inconclusive results are not listed. The source made the active and inactive calls. Calls follow the shape of the dose curve; as a rule, active = well fitted cell-killing curve with a large enough effect; inconclusive = small, poorly fitted or top-dose-only effect, or effect the other way; inactive = no such curve, though single readings can be large or run the other way.
Your response should consist of one outcome taken from active, inactive

[[record]]
compound = "CC(C)N1[N]C(=C2C=c3cc(O)ccc3=N2)c2c(N)ncnc21"
assigned_category = "active"

[[record]]
compound = "Cn1cnc(=N)c2[nH]cnc21"
assigned_category = "active"


Consider now this further compound.
Could you check what this test reported for `CCCCOc1ccc(C(=O)Nc2ccc(F)cc2F)cc1` ?
inactive

====

- method notes: Quantitative High-Throughput drug screen in 47 multiple myeloma cell lines against the NCATS MIPE library collection: OPM1_PLB cell viability assay (AID 1918989); also: nearly all actives have a fitted effect of over 40% in size; also: potency is read from the fitted curve at half-maximal effect
- conditions: CellTiter-Glo, 48 h; series mostly up to 45.8 µM
Records with an inconclusive call do not appear. Activity calls are given as the source filed them. Calls follow the shape of the dose curve; as a rule, active = well fitted cell-killing curve with a large enough effect; inconclusive = small, poorly fitted or top-dose-only effect, or effect the other way; inactive = no such curve, though single readings can be large or run the other way.
recorded endpoint: Potency

// solved cases for Potency follow
[[record]]
smiles_record = "CN[C@@H]1C[C@H]2O[C@@](C)([C@H]1OC)n1c3ccccc3c3c4c(c5c6ccccc6n2c5c31)C(=O)N[C@H]4O"
recorded_endpoint = "Potency"
reported = "0.0935 µM (active)"

[[record]]
smiles_record = "Cc1cnc(Nc2ccc(CN3CCOCC3)cc2)nc1Nc1cccc(S(=O)(=O)NC(C)(C)C)c1"
recorded_endpoint = "Potency"
reported = "0.935 µM (active)"

[[record]]
smiles_record = "O=C(O)CCCCCC(=O)NN=C1CCCC1"
recorded_endpoint = "Potency"
reported = "inactive"

[[record]]
smiles_record = "CCCCCCCCCCCCCCCC(=O)OC[C@@H](NC(=O)C(Cl)Cl)[C@H](O)c1ccc([N+](=O)[O-])cc1"
recorded_endpoint = "Potency"
reported = "inactive"


Kindly review the next molecule as well.
Potency for `O=c1[nH]c(=O)n([C@H]2C[C@@H](O)[C@@H](CO)O2)cc1C=CBr` ?
0.105 µM (active)

====

- method notes: qHTS of pediatric cancer cell lines to identify multiple opportunities for drug repurposing: Primary screen for TC32 cells (AID 1347089); also: nearly all actives have a fitted effect of over 60% in size
- conditions: TC32 Ewing sarcoma viability, CellTiter-Glo luminescence, 48 h; series mostly up to 45.8 µM
Inconclusive results are not listed. Activity calls are given as the source filed them. The call rests on the fitted dose curve; in most records, active means well fitted cell-killing curve with a large enough effect; inconclusive means small, poorly fitted or top-dose-only effect; inactive means flat fitted curve, though single readings scatter. Non-standard residues stand in square brackets, D forms with d. Residues, ends and D or L forms follow the SMILES beside them. *: point of attachment. Nva = CCC[C@H](N)C(=O)O; Cbz = O=C(OCc1ccccc1)*
Your response should consist of one outcome taken from active, inactive

Example cases with answers are listed next.
[[record]]
compound = "O=C1NC(O)CCN1[C@@H]1O[C@H](CO)[C@H](O)[C@H]1O (some centres undefined)"
assigned_category = "inactive"

[[record]]
compound = "CC(C)N(CC[C@H](c1ccccc1)c1cc(CO)ccc1O)C(C)C"
assigned_category = "inactive"

[[record]]
compound = "C[C@]12C=CC(=O)N[C@@H]1CC[C@H]1[C@H]3CC[C@@H](C(=O)Nc4cc(C(F)(F)F)ccc4C(F)(F)F)[C@@]3(C)CC[C@@H]12"
assigned_category = "inactive"


Consider now this further compound.
Could you check what this test reported for CCC[C@@H](C=O)NC(=O)[C@H](CC(C)C)NC(=O)[C@H](CC(C)C)NC(=O)OCc1ccccc1 (Cbz-Leu-Leu-[Nva]-aldehyde) ?
active
